Recorded values, source patent US20230121721A1.

# measured target: hMAGL (MAGL-overexpressing membrane preparations from transiently transfected HEK293T cells) (Homo sapiens)
# Sequence (Q99685 1-303): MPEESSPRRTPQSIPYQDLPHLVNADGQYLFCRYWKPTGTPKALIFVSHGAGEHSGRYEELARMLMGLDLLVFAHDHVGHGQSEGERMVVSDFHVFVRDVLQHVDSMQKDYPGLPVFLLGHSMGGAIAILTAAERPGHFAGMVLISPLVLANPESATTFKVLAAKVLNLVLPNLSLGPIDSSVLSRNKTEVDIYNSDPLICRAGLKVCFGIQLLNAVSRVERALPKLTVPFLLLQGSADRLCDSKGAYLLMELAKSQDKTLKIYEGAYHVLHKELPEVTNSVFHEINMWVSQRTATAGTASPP
# maps each entry to its pIC50
The meaning of pIC50 here: minus log10 of the concentration in molar units.

C[C@H]1[C@H](C)N(c2cccc(Cl)c2)CCN1C(=O)c1ccc([S+]([O-])CC(=O)c2cccc(F)c2F)c(Cl)c1 (mixture of isomers) = 6.24
C[C@H]1[C@H](C)N(c2cccc(Cl)c2)CCN1C(=O)c1ccc([S+]([O-])CC(=O)c2ccccc2F)c(Cl)c1 (mixture of isomers) = 5.79
CCOC(=O)C[S+]([O-])c1ccc(C(=O)N2CCN(c3cccc([N+](=O)[O-])c3)CC2)cc1[N+](=O)[O-] (stereo not drawn) = 5.59
CCOC(=O)C[S+]([O-])c1ccc(CN2CCN(c3cccc(Cl)c3)[C@H](C)[C@H]2C)cc1Cl (mixture of isomers) = 8.21
C[C@H]1[C@H](C)N(c2cccc(Cl)c2)CCN1C(=O)c1ccc([S+]([O-])CC(=O)C(F)(F)c2ccccc2)c(Cl)c1 (mixture of isomers) = 7.06

The reported value for C[C@H]1[C@H](C)N(c2cccc(Cl)c2)CCN1C(=O)c1ccc([S+]([O-])CC(=O)c2cccnc2)c(Cl)c1 (mixture of isomers) in terms of pIC50 is 5.01

###

# measured target: hMAGL (MAGL-overexpressing membrane preparations from transiently transfected HEK293T cells) (Homo sapiens, UniProt Q99685)
# Sequence (Q99685 1-303): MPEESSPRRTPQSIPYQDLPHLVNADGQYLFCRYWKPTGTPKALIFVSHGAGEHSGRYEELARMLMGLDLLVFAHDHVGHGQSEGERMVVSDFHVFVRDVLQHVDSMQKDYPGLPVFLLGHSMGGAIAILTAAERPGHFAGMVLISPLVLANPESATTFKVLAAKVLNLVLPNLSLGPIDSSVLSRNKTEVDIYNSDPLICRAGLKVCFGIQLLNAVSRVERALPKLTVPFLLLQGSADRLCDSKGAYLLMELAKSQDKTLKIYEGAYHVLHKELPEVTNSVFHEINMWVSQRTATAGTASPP
property name: IC50 (nM)
Note: unit nM is implicit; provide only the numeric part.

C[C@H]1[C@H](C)N(c2cccc(Cl)n2)CCN1C(=O)c1ccc([S+]([O-])CC(=O)C(C)(F)F)c(Cl)c1 (mixture of isomers) = 0.851
CCOC(=O)C[S+]([O-])c1ccc(C(=O)N2CCN(c3ccc(Cl)cc3Cl)CC2)cc1[N+](=O)[O-] (stereo not drawn) = 1950
COCC(C)OC(=O)C[S+]([O-])c1ccc(C(=O)N2CCN(c3cccc(Cl)c3)[C@@H](C)[C@@H]2C)cc1Cl (mixture of isomers) = 46.8
C[C@H]1[C@H](C)N(c2cccc(Cl)c2)CCN1C(=O)c1ccc([S+]([O-])CC(=O)c2ncco2)c(Cl)c1 (mixture of isomers) = 204

Now consider a different molecule.
The reported value for CCOC(=O)C[S+]([O-])c1ccc(C(=O)N2CCN(c3cccc(Cl)c3)C(C)(C)C2)cc1F (stereo not drawn) in terms of IC50 is 46.8

###

# maps each entry to its pIC50
# measured target: hMAGL (MAGL-overexpressing membrane preparations from transiently transfected HEK293T cells) (Homo sapiens, UniProt Q99685)
The meaning of pIC50 here: minus log10 of the concentration in molar units.

CCOC(=O)CS(=O)(=O)c1ccc(C(=O)N2CCN(c3cccc(Cl)c3)[C@H](C)[C@H]2C)cc1Cl (racemic) = 6.47
CCOC(=O)C[S+]([O-])c1ccc(C(=O)N2CCN(c3cccc(C(F)(F)F)c3)[C@H](C)C2)cc1[N+](=O)[O-] (stereo partly shown) = 6.94
CCC(C)OC(=O)C[S+]([O-])c1ccc(C(=O)N2CCN(c3cccc(Cl)c3)[C@H](C)[C@H]2C)cc1Cl (mixture of isomers) = 8.41

The reported value for C[C@H]1[C@H](C)N(c2cccc(Cl)c2)CCN1C(=O)c1ccc([S+]([O-])CC(=O)C(F)F)c(Cl)c1 (mixture of isomers) in terms of pIC50 is 8.63

The reported value for CCOC(=O)C[S+]([O-])c1ccc(C(=O)N2CCN(c3cccc(C)c3)[C@@H](C)C2)cc1 (stereo partly shown) in terms of pIC50 is 5.25

The reported value for CCOC(=O)C[S+]([O-])c1ccc(C(=O)N2CCN(c3cccc(C)c3)[C@H](C)C2)cc1[N+](=O)[O-] (stereo partly shown) in terms of pIC50 is 6.71

The reported value for CCOC(=O)C[S+]([O-])c1ccc(C(=O)N2CCN(c3cccc(C(F)(F)F)c3)[C@@H](C)C2)cc1[N+](=O)[O-] (stereo partly shown) in terms of pIC50 is 6.70

The reported value for C[C@H]1[C@H](C)N(c2cccc(Cl)c2)CCN1C(=O)c1ccc([S+]([O-])CC(=O)c2ccc(C#N)cc2)c(Cl)c1 (mixture of isomers) in terms of pIC50 is 7.04

The reported value for C[C@H]1[C@H](C)N(c2cccc(Cl)c2)CCN1C(=O)c1ccc([S+]([O-])CC(=O)c2ccc(F)cc2)c(Cl)c1 (mixture of isomers) in terms of pIC50 is 5.72

###

# measured target: hMAGL (MAGL-overexpressing membrane preparations from transiently transfected HEK293T cells) (Homo sapiens, UniProt Q99685)
property name: IC50 (nM)
Note: unit nM is implicit; provide only the numeric part.

CCOC(=O)C[S+]([O-])c1ccc(C(=O)N2CCN(c3cccc(Cl)c3)CC2C)cc1F (stereo not drawn) [Example 44] = 27.5
C[C@@H]1[C@@H](C)N(c2cccc(Cl)c2)CCN1C(=O)c1ccc([S+]([O-])CC(=O)OC2CCCCC2)c(Cl)c1 (mixture of isomers) [Example 60] = 2.95
CCC(F)(F)C(=O)C[S+]([O-])c1ccc(C(=O)N2CCN(c3cccc(Cl)n3)[C@@H](C)[C@@H]2C)cc1Cl (mixture of isomers) [Example 82] = 0.123
C[C@H]1[C@H](C)N(c2cccc(Cl)c2)CCN1C(=O)c1ccc([S+]([O-])CC(=O)C(C)(F)F)c(Cl)c1 (mixture of isomers) [Example 78] = 1.48

Now consider a different molecule.
The reported value for C[C@H]1[C@H](C)N(c2cccc(Cl)c2)CCN1C(=O)c1ccc([S+]([O-])CC(=O)c2ccc(C(F)(F)F)cc2)c(Cl)c1 (mixture of isomers) [Example 103] in terms of IC50 is 2950

###

# maps each entry to its IC50
# measured target: hMAGL (MAGL-overexpressing membrane preparations from transiently transfected HEK293T cells) (Homo sapiens, UniProt Q99685)
# Sequence (Q99685 1-303): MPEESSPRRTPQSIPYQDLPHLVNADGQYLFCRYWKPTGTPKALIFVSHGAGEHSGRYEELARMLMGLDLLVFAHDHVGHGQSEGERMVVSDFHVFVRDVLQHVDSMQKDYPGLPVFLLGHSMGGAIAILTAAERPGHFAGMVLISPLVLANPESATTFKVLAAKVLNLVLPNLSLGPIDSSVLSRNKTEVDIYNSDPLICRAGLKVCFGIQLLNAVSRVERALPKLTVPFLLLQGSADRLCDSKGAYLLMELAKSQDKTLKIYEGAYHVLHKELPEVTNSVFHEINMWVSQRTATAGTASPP
Note: unit nM is implicit; provide only the numeric part.

C[C@@H]1CN(C(=O)c2ccc([S+]([O-])CC(=O)OCCCO)c([N+](=O)[O-])c2)CCN1c1cccc(Cl)c1 (stereo partly shown) = 34.7
CCOC(=O)C[S+]([O-])c1ccc(C(=O)N2CCN(c3cccc(C)c3)[C@@H](C)C2)cc1[N+](=O)[O-] (stereo partly shown) = 269
CCOC(=O)C[S+]([O-])c1ccc(C(=O)N2CCN(c3cccc(Cl)c3)[C@H](C)[C@H]2C)cc1C(F)(F)F (mixture of isomers) = 14.8
C[C@H]1[C@H](C)N(c2cccc(Cl)c2)CCN1C(=O)c1ccc([S+]([O-])CC(=O)c2ccnnc2)c(Cl)c1 (mixture of isomers) = 708
C[C@H]1[C@H](C)N(c2cccc(Cl)c2)CCN1C(=O)c1ccc([S+]([O-])CC(=O)c2ccccc2)c(Cl)c1 (mixture of isomers) = 2290
CCOC(=O)C[S+]([O-])c1ccc(C(=O)N2CCN(c3cccc(F)c3)CC2)cc1[N+](=O)[O-] (stereo not shown) = 631
C[C@H]1[C@H](C)N(c2cccc(Cl)c2)CCN1C(=O)c1ccc([S+]([O-])CC(=O)c2ccc(C#N)cn2)c(Cl)c1 (mixture of isomers) = 10
CCOC(=O)C[S+]([O-])c1ccc(C(=O)N2CCN(c3cc(Cl)ccn3)[C@@H](C)[C@@H]2C)cc1Cl (mixture of isomers) = 8.71

The reported value for CCOC(=O)C[S+]([O-])c1ccc(C(=O)N2CCN(c3ccnc(Cl)c3)[C@@H](C)[C@@H]2C)cc1Cl (mixture of isomers) in terms of IC50 is 87.1

The reported value for CCOC(=O)C[S+]([O-])c1c(F)cc(C(=O)N2CCN(c3cccc(Cl)c3)[C@H](C)C2)cc1F (stereo partly shown) in terms of IC50 is 282

The reported value for C[C@H]1[C@H](C)N(c2cccc(Cl)c2)CCN1C(=O)c1ccc(SCC(=O)C(F)(F)F)c(Cl)c1 (racemic) in terms of IC50 is 20.9

The reported value for CCOC(=O)C[S+]([O-])c1ccc(C(=O)N2CCN(c3cccc(F)c3)[C@@H](C)C2)cc1[N+](=O)[O-] (stereo partly shown) in terms of IC50 is 155

The reported value for C[C@H]1[C@H](C)N(c2cccc(Cl)c2)CCN1C(=O)c1ccc([S+]([O-])CC(=O)c2ccc(F)cc2F)c(Cl)c1 (mixture of isomers) in terms of IC50 is 234
